# System: cynomolgus FolR1
# Sequence (as listed by the source): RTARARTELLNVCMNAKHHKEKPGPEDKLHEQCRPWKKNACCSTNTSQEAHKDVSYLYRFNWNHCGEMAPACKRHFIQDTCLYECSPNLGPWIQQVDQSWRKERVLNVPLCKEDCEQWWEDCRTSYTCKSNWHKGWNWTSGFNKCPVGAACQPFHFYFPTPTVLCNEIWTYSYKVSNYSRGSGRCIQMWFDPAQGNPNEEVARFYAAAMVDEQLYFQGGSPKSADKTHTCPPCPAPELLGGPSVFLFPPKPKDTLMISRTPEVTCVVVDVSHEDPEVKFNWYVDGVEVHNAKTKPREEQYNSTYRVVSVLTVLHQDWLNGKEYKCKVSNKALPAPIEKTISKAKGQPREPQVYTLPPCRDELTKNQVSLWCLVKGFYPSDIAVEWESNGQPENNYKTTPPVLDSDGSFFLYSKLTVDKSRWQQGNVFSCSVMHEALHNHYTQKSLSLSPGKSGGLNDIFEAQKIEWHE
# condition-summary: IgG injected for 60 seconds at 500 nM

[
  {
    "molecule": "6B6: anti-FolR1 clone, generic multi-framework library (Vk3_20/VH1_46); Fab and IgG (antibody, V domains shown) VH: QVQLVQSGAEVKKPGASVKVSCKASGYTFTSYYMHWVRQAPGQGLEWMGIINPSGGSTSYAQKFQGRVTMTRDTSTSTVYMELSSLRSEDTAVYYCARSYVDMDYWGQGTLVTVSS VL: EIVLTQSPGTLSLSPGERATLSCRASQSVSSSYLAWYQQKPGQAPRLLIYGASSRATGIPDRFSGSGSGTDFTLTISRLEPEDFAVYYCQQDIWSPTFGQGTKVEIK",
    "Binding to cyFolR1": "+"
  }
]
